All figures here come from the supplement of paper PMC10065799.

EXPERIMENTAL_TARGET: c-Src SH2;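 note: peptide library displayed on the E. coli surface as eCPX fusions, selected cells deep-sequenced, score is each peptide's frequency after selection divided by its frequency in the input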
ASSAY_COMMENT: SH2 binding enrichment of the phosphorylated peptide, bacterial display (enrichment ratio); higher = better substrate or ligand; peptides without Tyr show the background
Rule: SH2 binding enrichment of 0.5 or more gives YES; anything lower gives NO.

Use these answered entries as a reference point.
• KHMADYPDYKY [SOX11_Y113] = YES
• TNGFTYGSSHQ [MANEA_Y331] = NO
• ETKKQYNSFTF [TMED3_Y85_D86N_YF] = NO

// query Does the reported SH2 binding enrichment for CNSFQYGGGGG [NPPA_Y151_R150Q] fall at or above the 0.5 mark?
// result YES
